The measurements presented in this section are drawn from paper PMC12563431.

# targetOrSystem: T1, His6-Q9I5H3 (P. aeruginosa, UniProt Q9I5H3 1-223)
# T1 construct: also called recombinant Q9I5H3 protein; PA0756; source: E. coli BL21 (pET28a), purified (His-Trap FF IMAC; gel filtration on Superdex 75)
# T1 sequence: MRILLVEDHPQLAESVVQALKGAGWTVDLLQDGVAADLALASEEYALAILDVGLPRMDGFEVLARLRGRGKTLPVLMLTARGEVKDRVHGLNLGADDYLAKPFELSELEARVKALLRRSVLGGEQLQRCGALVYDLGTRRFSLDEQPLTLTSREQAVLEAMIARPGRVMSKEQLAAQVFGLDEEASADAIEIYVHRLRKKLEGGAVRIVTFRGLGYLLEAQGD
# protocolDescription: other fluorescence titration; intrinsic protein fluorescence (excitation 280 nm, emission 337 nm); 35 μM Q9I5H3 (dimeric form from gel filtration) fixed, Esc(1-21)-1c added from 1.5 to 50 µM; 50 mM Tris-HCl pH 8.0, 150 mM NaCl, 20 °C; duplicate; one site specific binding fit
# cond: both partners purified
Where no end group is shown, it is not given here. [ ]: non-standard residue; d: D form.
measurementType: Kd (µM)
Just the number in µM, nothing appended.

Incoming: Quick check: Kd of GIFSKLAGKKIKN[dL]LI[dS]GLKG-NH2 (also called Esc(1-21)-1c peptide; AMP) [Esc(1-21)-1c] ?
Outgoing: 10
